# protocol.notes: basal S. cerevisiae growth modulation, no modifier, primary screen, OD600, strain BY4716, 24 h, basal condition (AID 1173)
# condition.notes: OD600, 24 h, higher = more signal, called active from +8 up or from −8 down
Active and inactive are the calls of the source.
assay.endpoint: z-score

For orientation, consider the following solved cases.
>  <smiles.repr>
Cc1ccc(S[C@]2(C(=O)O)CC(=O)N(Cc3ccccc3)[C@@H]2c2ccc(CO)cc2I)cc1

>  <z-score>
-3.44 (inactive)

$$$$
>  <smiles.repr>
CC(C)=CCCC(C)=CCON=C1[C@H]2CCn3c(=O)n(C)c(=O)n3[C@H]2[C@H](O)[C@@H]2O[C@H]12

>  <z-score>
-0.777 (inactive)

$$$$
>  <smiles.repr>
COc1ccc([Si](C)(C)[C@@H]2[C@@H](CC(=O)N3CCC[C@H]3CO)O[C@]3(C(=O)N(Cc4cccc(N5CCC5=O)c4)c4ccccc43)[C@H]2C)cc1

>  <z-score>
-0.0905 (inactive)

$$$$

Now look at this entry.
Fill in: z-score of `CCOC(=O)CCN1C(=O)[C@H]2[C@H]3[C@H](O)C=CC(=O)[C@@H]3CC[C@H]2C1=O` is ___ 0.454 (inactive)

Taken from PubChem BioAssay.
